These measurements were taken from patent US9029405B2.

target: S1P1 (Homo sapiens, UniProt P21453); experiment: S1P1 internalization assay in S1P1-U2OS cells (cell imaging); settings: U2OS cells expressing S1P1-EGFP, 384-well format
Sequence (P21453 whole entry): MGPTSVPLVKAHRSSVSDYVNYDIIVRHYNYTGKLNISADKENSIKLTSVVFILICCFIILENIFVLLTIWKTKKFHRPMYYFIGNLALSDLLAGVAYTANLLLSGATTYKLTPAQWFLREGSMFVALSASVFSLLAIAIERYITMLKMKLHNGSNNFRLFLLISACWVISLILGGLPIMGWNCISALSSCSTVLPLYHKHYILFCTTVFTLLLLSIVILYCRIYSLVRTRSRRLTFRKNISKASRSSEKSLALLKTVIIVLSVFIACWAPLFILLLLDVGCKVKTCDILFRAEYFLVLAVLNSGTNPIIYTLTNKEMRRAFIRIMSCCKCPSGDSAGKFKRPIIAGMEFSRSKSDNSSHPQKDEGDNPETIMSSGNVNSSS
pEC50: −log10 of the molar value. Where a name gives a salt, the structure may show the parent alone.
Quick rule: pEC50 of at least 7 means rule met, below that means rule not met.

- molecule: "CC[C@H](N[C@H](C)c1ccc(-c2noc(-c3ccc(-c4ccccc4C)c(C(F)(F)F)c3)n2)cc1)C(=O)O [Example 10, hydrochloride salt]"
  assigned category: "rule not met"
- molecule: "Cc1ccccc1-c1ccc(-c2nc(-c3ccc(CN(C)[C@@H](C)C(=O)O)cc3)no2)cc1C(F)(F)F"
  assigned category: "rule met"
- molecule: "Cc1ccccc1-c1ccc(-c2nc(-c3ccc(CN[C@H](C(=O)O)C(C)C)cc3)no2)cc1C(F)(F)F"
  assigned category: "rule met"
- molecule: "Cc1ccccc1-c1ccc(-c2nc(-c3ccc(CNC4(C(=O)O)CCCC4)cc3)no2)cc1C(F)(F)F"
  assigned category: "rule met"
- molecule: "COCC(c1ccc(-c2noc(-c3ccc(-c4ccccc4C)c(C(F)(F)F)c3)n2)cc1)N(C)CC(=O)O (stereo not shown)"
  assigned category: "rule met"
